B1: CPEB3 Ribozyme (parent)
chain: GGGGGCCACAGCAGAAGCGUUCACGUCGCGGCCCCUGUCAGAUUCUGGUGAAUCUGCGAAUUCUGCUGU

- Variants of: B1
- testDetails: self-cleavage, relative activity (ratio to wild type); higher = more cleavage; co-transcriptional
Returns Condition met if the recorded self-cleavage is greater than or equal to 0.4, and Condition not met otherwise.

Ask: Check if self-cleavage >= 0.4 (inclusive). Item: GGGGGCCACAGCAGACGCGUUCACGUCGCGGCCCCUGUCAGAUUCUGGUGAAUCUCCGAAUUCUGCUGU [A16C G56C]
Reply: Condition not met

Ask: Now consider GGGGGCCACAGGAGAAGCGUUCACGUCGCGGCCCCUGUCAGAUUCUGGUGAAUCUUCGAAUUCUGCUGU [C12G G56U] and answer again.
Reply: Condition met

Ask: Follow-up entry: GGGGGCCACAUCAGAAGCGUUCACGUCGCGGCCCCUGUCAGAUUCUGGUGAAUCUGCGAAUUCGGCUGU [G11U U64G]
Reply: Condition met

Ask: Same question, AGGGGCCACAGCAGAAGCGUUCACGUCGCGGCCCCUGGCAGAUUCUGGUGAAUCUGCGAAUUCUGCUGU [G1A U38G] this time
Reply: Condition not met

Ask: Check GGGGGCCACAGCAGAAGCGUUCACGUCGCGGCCCCUGUCAGAUUCUCGUGAAUCUGCGACUUCUGCUGU [G47C A60C] too.
Reply: Condition not met

Ask: Quick one: GGGGGCCACAGCAGAAGCGUUCACGUCGCGGUCCCUGUCAGAUUCUGGUGAAUCUGCGAAUUGUGCUGU [C32U C63G]
Reply: Condition met

Ask: Now give it for GGGGGCCACAGCAGAAGCGUUCACGUCGCGGCUCCUUUCAGAUUCUGGUGAAUCUGCGAAUUCUGCUGU [C33U G37U] too.
Reply: Condition not met

Ask: Same for GGAGGCCACAGCAGAAGCGUUCACGUCGCGGCCCAUGUCAGAUUCUGGUGAAUCUGCGAAUUCUGCUGU [G3A C35A]
Reply: Condition not met

Ask: For GGGGGCCACAGCAGAAGCGUUCACGUCGCGGCCCCUGUCAGAUUCUGCUGAAUCGGCGAAUUCUGCUGU [G48C U55G] then?
Reply: Condition met

Ask: Also need GAGGGCCACAGCAGAAGCGUUCACGUCGCGGCGCCUGUCAGAUUCUGGUGAAUCUGCGAAUUCUGCUGU [G2A C33G] , thanks.
Reply: Condition not met

Now consider the entry below.
Ask: Is the recorded value of self-cleavage equal to or greater than 0.4 for this variant? GGGGGCCACAGCAGAAGCGUUCACGUCGAGGCCCCUGUCAGAUUCUGGUGAAUCUGCGAAUUCUGCGGU [C29A U67G]
Reply: Condition met

All figures here come from the RNAGym collection of RNA variant scans (doi:10.7554/elife.80360).
